These data points were gathered from patent US11202776B2.

assay: Phase I single-ascending dose (SAD) pharmacokinetics incl. food effect, plasma concentration of the Compound; type: in vivo, human; settings: human, plasma, po, 100 mg, single PO dose 100 mg, fasted, healthy subjects
Where a name gives a salt, the structure may show the parent alone.

MOLECULE	AUC(0-inf)
O=C(O)c1cccc(CN2CN(C3CCCCC3)C3(CCN(CCCC(=O)c4ccccc4)CC3)C2=O)c1 [the Maleate Salt]	180 ng·h/mL

---

test: Phase I multiple-ascending dose (MAD) pharmacokinetics, BID Days 1-4 and single morning dose Day 5; type: in vivo, human; details: human, plasma, po, 100 mg, 100 mg BID PO, fasting, Day 5 (samples collected to 24 h)
Counter-ions that a name gives are not always drawn.
READOUT_NAME: half-life (h)

COMPOUND	READOUT_NAME	MEASUREMENT_UNITS	MEASURED_VALUE
O=C(O)c1cccc(CN2CN(C3CCCCC3)C3(CCN(CCCC(=O)c4ccccc4)CC3)C2=O)c1 [the Maleate Salt]	half-life	h	6.2

---

test: Phase I single-ascending dose (SAD) pharmacokinetics incl. food effect, plasma concentration of the Compound; format: in vivo, human; conditions: human, plasma, po, 300 mg, single PO dose 300 mg, fasted, healthy subjects
Structures can show the parent of a compound that is named as a salt.

COMPOUND	MEASUREMENT_UNITS	AUC(0-inf)
O=C(O)c1cccc(CN2CN(C3CCCCC3)C3(CCN(CCCC(=O)c4ccccc4)CC3)C2=O)c1 [the Maleate Salt]	ng·h/mL	446

---

assay: Phase I single-ascending dose (SAD) pharmacokinetics incl. food effect, plasma concentration of the Compound; format: in vivo, human; details: human, plasma, po, 5 mg, single PO dose 5 mg, fasted, healthy subjects
Structures can show the parent of a compound that is named as a salt.
READOUT_NAME: Cmax (ng/mL)

COMPOUND	READOUT_NAME	MEASURED_VALUE
O=C(O)c1cccc(CN2CN(C3CCCCC3)C3(CCN(CCCC(=O)c4ccccc4)CC3)C2=O)c1 [the Maleate Salt]	Cmax	2.1

---

assay: Phase I multiple-ascending dose (MAD) pharmacokinetics, BID Days 1-4 and single morning dose Day 5; type: in vivo, human; conditions: human, plasma, po, 50 mg, 50 mg BID PO, fasting, Day 5; read-out: AUC12
Where a name gives a salt, the structure may show the parent alone.
READOUT_NAME: AUC (ng·h/mL)

COMPOUND	READOUT_NAME	MEASUREMENT_UNITS	MEASURED_VALUE
O=C(O)c1cccc(CN2CN(C3CCCCC3)C3(CCN(CCCC(=O)c4ccccc4)CC3)C2=O)c1 [the Maleate Salt]	AUC	ng·h/mL	58.1

---

Assay: Phase I multiple-ascending dose (MAD) pharmacokinetics, BID Days 1-4 and single morning dose Day 5
Type: in vivo, human
Details: human, plasma; 50 mg BID PO, fasting, Day 5; read-out: Clast
Procedure: A phase I randomized, double-blind, placebo-controlled, adaptive-design, single-ascending dose (SAD) and multiple-ascending dose (MAD) study was conducted in healthy human subjects to evaluate the safety, tolerability, pharmacokinetics (PK), pharmacodynamics (PD), food effect, and optimal oral dose of 3-((1-cyclohexyl-4-oxo-8-(4-oxo-4-phenylbutyl)-1,3,8-triazaspiro[4.5]decan-3-yl)methyl)benzoic acid maleate (hereinafter, “the Maleate Salt”). […]
Where a name gives a salt, the structure may show the parent alone.

MOLECULE	MEASUREMENT_UNITS	concentration at 24 h
O=C(O)c1cccc(CN2CN(C3CCCCC3)C3(CCN(CCCC(=O)c4ccccc4)CC3)C2=O)c1 [the Maleate Salt]	ng/mL	0.18

---

experiment: Phase I single-ascending dose (SAD) pharmacokinetics incl. food effect, plasma concentration of the Compound; format: in vivo, human; conditions: human, plasma, po, 300 mg, single PO dose 300 mg, fasted, healthy subjects
Structures can show the parent of a compound that is named as a salt.

MOLECULE	Cmax
O=C(O)c1cccc(CN2CN(C3CCCCC3)C3(CCN(CCCC(=O)c4ccccc4)CC3)C2=O)c1 [the Maleate Salt]	192 ng/mL

---

Experiment: Phase I single-ascending dose (SAD) pharmacokinetics incl. food effect, plasma concentration of the Compound
Format: in vivo, human
Conditions: human, plasma, po, 25 mg, single PO dose 25 mg, fasted, healthy subjects; read-out: T1/2 (converted)
Protocol: A phase I randomized, double-blind, placebo-controlled, adaptive-design, single-ascending dose (SAD) and multiple-ascending dose (MAD) study was conducted in healthy human subjects to evaluate the safety, tolerability, pharmacokinetics (PK), pharmacodynamics (PD), food effect, and optimal oral dose of 3-((1-cyclohexyl-4-oxo-8-(4-oxo-4-phenylbutyl)-1,3,8-triazaspiro[4.5]decan-3-yl)methyl)benzoic acid maleate (hereinafter, “the Maleate Salt”). […]
Structures can show the parent of a compound that is named as a salt.
READOUT_NAME: half-life (min)

COMPOUND	MEASURED_VALUE
O=C(O)c1cccc(CN2CN(C3CCCCC3)C3(CCN(CCCC(=O)c4ccccc4)CC3)C2=O)c1 [the Maleate Salt]	360

---

assay: Phase I single-ascending dose (SAD) pharmacokinetics incl. food effect, plasma concentration of the Compound; format: in vivo, human; details: human, plasma, po, 25 to 300 mg dose levels, single PO dose; read-out: Arithmetic mean T1/2 in fasted subjects (converted)
Where a name gives a salt, the structure may show the parent alone.

COMPOUND	half-life
O=C(O)c1cccc(CN2CN(C3CCCCC3)C3(CCN(CCCC(=O)c4ccccc4)CC3)C2=O)c1 [the Maleate Salt]	3.1 to 6 h

---

experiment: Phase I multiple-ascending dose (MAD) pharmacokinetics, BID Days 1-4 and single morning dose Day 5; format: in vivo, human; conditions: human, plasma, po, 100 mg, 100 mg BID PO, fasting, Day 5
Where a name gives a salt, the structure may show the parent alone.
READOUT_NAME: Tmax

COMPOUND	MEASURED_VALUE
O=C(O)c1cccc(CN2CN(C3CCCCC3)C3(CCN(CCCC(=O)c4ccccc4)CC3)C2=O)c1 [the Maleate Salt]	1.53 h

---

test: Phase I single-ascending dose (SAD) pharmacokinetics incl. food effect, plasma concentration of the Compound; format: in vivo, human; conditions: human, plasma, po, 300 mg, single PO dose 300 mg, fasted, healthy subjects; read-out: Tmax
Where a name gives a salt, the structure may show the parent alone.

COMPOUND	MEASUREMENT_UNITS	Tmax
O=C(O)c1cccc(CN2CN(C3CCCCC3)C3(CCN(CCCC(=O)c4ccccc4)CC3)C2=O)c1 [the Maleate Salt]	h	1.88

---

experiment: Phase I single-ascending dose (SAD) pharmacokinetics incl. food effect, plasma concentration of the Compound; assay type: in vivo, human; details: human, plasma, po, 200 mg, single PO dose 200 mg, fasted, healthy subjects; read-out: Tmax
Where a name gives a salt, the structure may show the parent alone.

MOLECULE	Tmax
O=C(O)c1cccc(CN2CN(C3CCCCC3)C3(CCN(CCCC(=O)c4ccccc4)CC3)C2=O)c1 [the Maleate Salt]	1.24 h

---

test: Phase I multiple-ascending dose (MAD) pharmacokinetics, BID Days 1-4 and single morning dose Day 5; type: in vivo, human; details: human, plasma, po, 100 mg, 100 mg BID PO, fasting, Day 5; read-out: AUC12
Counter-ions that a name gives are not always drawn.
READOUT_NAME: AUC (µg·h/mL)

MOLECULE	MEASUREMENT_UNITS	MEASURED_VALUE
O=C(O)c1cccc(CN2CN(C3CCCCC3)C3(CCN(CCCC(=O)c4ccccc4)CC3)C2=O)c1 [the Maleate Salt]	µg·h/mL	0.201

---

experiment: Phase I multiple-ascending dose (MAD) pharmacokinetics, BID Days 1-4 and single morning dose Day 5; type: in vivo, human; conditions: human, plasma; 100 mg BID PO, fasting, Day 1; read-out: Clast
Structures can show the parent of a compound that is named as a salt.
READOUT_NAME: concentration at 12 h (ng/mL)

COMPOUND	MEASUREMENT_UNITS	MEASURED_VALUE
O=C(O)c1cccc(CN2CN(C3CCCCC3)C3(CCN(CCCC(=O)c4ccccc4)CC3)C2=O)c1 [the Maleate Salt]	ng/mL	0.42

---

experiment: Phase I single-ascending dose (SAD) pharmacokinetics incl. food effect, plasma concentration of the Compound; format: in vivo, human; conditions: human, plasma, po, 25 mg, single PO dose 25 mg, fasted, healthy subjects
Where a name gives a salt, the structure may show the parent alone.

MOLECULE	AUC(0-inf) (ng·h/mL)
O=C(O)c1cccc(CN2CN(C3CCCCC3)C3(CCN(CCCC(=O)c4ccccc4)CC3)C2=O)c1 [the Maleate Salt]	30.4

---

assay: Phase I single-ascending dose (SAD) pharmacokinetics incl. food effect, plasma concentration of the Compound; format: in vivo, human; settings: human, plasma, po, 100 mg, single PO dose 100 mg, fasted, healthy subjects; read-out: T1/2 (converted)
Structures can show the parent of a compound that is named as a salt.
READOUT_NAME: half-life (h)

COMPOUND	READOUT_NAME	MEASUREMENT_UNITS	MEASURED_VALUE
O=C(O)c1cccc(CN2CN(C3CCCCC3)C3(CCN(CCCC(=O)c4ccccc4)CC3)C2=O)c1 [the Maleate Salt]	half-life	h	5.4
